Cited source for all entries: patent US9113629B2

- System: ALOMY: black-grass (Alopecurus myosuroides)
- PROCEDURE_SUMMARY: Post-emergent Test III, herbicidal activity in wheat and barley
- Assay type: in vivo
- TEST_PARAMETERS: probit analysis, dose for growth reduction of 80 percent, 21 days after application

STRUCTURE: COC(=O)c1nc(-c2ccc(C#N)cc2)c(F)c(N)c1Cl
GR80 ALOMY: >140 g ai/ha
--
STRUCTURE: COC(=O)c1nc(-c2ccc(F)c(F)c2F)c(F)c(N)c1Cl
GR80 ALOMY: >140 g ai/ha
--
STRUCTURE: COC(=O)c1nc(-c2ccc(Br)c(F)c2F)cc(N)c1Cl
GR80 ALOMY: >140 g ai/ha
